Provide the recorded ED50 for the entries that follow.
tested on: Rattus norvegicus; assay: Antianaphylactic activity against IgE-mediated rat passive cutaneous anaphylaxis (PCA) model after intraperitoneal administration.; type: functional; settings: ip
Give the number; mg/kg is assumed, so skip it.

Data request: Which ED50 value belongs to `CCOC(=O)C(=O)Nc1nc(-c2cc(Br)no2)cs1` ?
Data returned: 12

Data request: Next entry: `CCOCCOC(=O)C(=O)Nc1nc(-c2cc(Br)no2)c(CC)s1`
Data returned: 3

Data request: Next entry: `NCCO.O=C(O)C(=O)Nc1nc(-c2cc(-c3c(F)cccc3Cl)no2)cs1`
Data returned: 2.4

Data request: Next entry: `Cc1cc(-c2csc(NC(=O)C(=O)O)n2)no1.NCCCC[C@H](N)C(=O)O`
Data returned: 1.7

Data request: Next entry: `CCOCCOC(=O)C(=O)Nc1nc(-c2cc(OC)no2)cs1`
Data returned: 3

Data request: Next entry: `NCCO.O=C(O)C(=O)Nc1nc(-c2cc(Br)no2)cs1`
Data returned: 7

Data request: Next entry: `CCOCCOC(=O)C(=O)Nc1nc(-c2cc(-c3c(F)cccc3Cl)no2)cs1`
Data returned: 1.1

Data request: Next entry: `CCOCCOC(=O)C(=O)Nc1nc(-c2cc(Br)no2)cs1`
Data returned: 11

Data request: Next entry: `CCOCCOC(=O)C(=O)Nc1nc(-c2cc(-c3ccccc3)on2)cs1`
Data returned: 0.2

Values compiled from ChEMBL document CHEMBL1125874.
